Target: Tyrosine-protein kinase JAK2 (Homo sapiens)
Settings: at 0.1 µM
endpoint: inhibition (%)
Output spec: scalar in %, unitless text.

>  <molecule>
COc1cc(/C=N/Nc2ncnc3[nH]ncc23)ccc1O

>  <measured.target>
Tyrosine-protein kinase JAK2 (Homo sapiens)

>  <inhibition, %>
1.72

$$$$
>  <molecule>
CCCN(CCS(C)(=O)=O)Cc1ccc(-c2ccc3ncnc(Nc4ccc(OCc5cccc(F)c5)c(Cl)c4)c3c2)o1

>  <measured.target>
Tyrosine-protein kinase JAK2 (Homo sapiens)

>  <inhibition, %>
0.69

$$$$
>  <molecule>
COc1cc(N2CCN(C(C)C)CC2)ccc1Nc1nc(Nc2ccc(F)cc2C(N)=O)c2cc[nH]c2n1

>  <measured.target>
Tyrosine-protein kinase JAK2 (Homo sapiens)

>  <inhibition, %>
2.05

$$$$
>  <molecule>
COc1cccc(-c2c[nH]c3c(N/N=C/c4ccncc4)ncnc23)c1

>  <measured.target>
Tyrosine-protein kinase JAK2 (Homo sapiens)

>  <inhibition, %>
1.76

$$$$
>  <molecule>
O=C(Nc1n[nH]c2cc(-c3ccc(F)cc3)ccc12)C1CC1

>  <measured.target>
Tyrosine-protein kinase JAK2 (Homo sapiens)

>  <inhibition, %>
1.12

$$$$
>  <molecule>
CC1=C(C(=O)Nc2cc(Cl)c3[nH]ncc3c2)C(c2ccc(C(F)(F)F)cc2)CC(=O)N1 (centres undefined)

>  <measured.target>
Tyrosine-protein kinase JAK2 (Homo sapiens);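 also: mean percent inhibition of JAK2 activity, from the GSK PKIS kinase panel screen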

>  <inhibition, %>
2.99

$$$$

For reference, reported inhibition for COc1ccc(-c2oc3ncnc(N)c3c2-c2ccc(NC(=O)Nc3cc(C(F)(F)F)ccc3F)cc2)cc1 stands at 2.04

---

Molecular target: Leukocyte tyrosine kinase receptor (Homo sapiens) (UniProt P29376)
Sequence (P29376 whole entry): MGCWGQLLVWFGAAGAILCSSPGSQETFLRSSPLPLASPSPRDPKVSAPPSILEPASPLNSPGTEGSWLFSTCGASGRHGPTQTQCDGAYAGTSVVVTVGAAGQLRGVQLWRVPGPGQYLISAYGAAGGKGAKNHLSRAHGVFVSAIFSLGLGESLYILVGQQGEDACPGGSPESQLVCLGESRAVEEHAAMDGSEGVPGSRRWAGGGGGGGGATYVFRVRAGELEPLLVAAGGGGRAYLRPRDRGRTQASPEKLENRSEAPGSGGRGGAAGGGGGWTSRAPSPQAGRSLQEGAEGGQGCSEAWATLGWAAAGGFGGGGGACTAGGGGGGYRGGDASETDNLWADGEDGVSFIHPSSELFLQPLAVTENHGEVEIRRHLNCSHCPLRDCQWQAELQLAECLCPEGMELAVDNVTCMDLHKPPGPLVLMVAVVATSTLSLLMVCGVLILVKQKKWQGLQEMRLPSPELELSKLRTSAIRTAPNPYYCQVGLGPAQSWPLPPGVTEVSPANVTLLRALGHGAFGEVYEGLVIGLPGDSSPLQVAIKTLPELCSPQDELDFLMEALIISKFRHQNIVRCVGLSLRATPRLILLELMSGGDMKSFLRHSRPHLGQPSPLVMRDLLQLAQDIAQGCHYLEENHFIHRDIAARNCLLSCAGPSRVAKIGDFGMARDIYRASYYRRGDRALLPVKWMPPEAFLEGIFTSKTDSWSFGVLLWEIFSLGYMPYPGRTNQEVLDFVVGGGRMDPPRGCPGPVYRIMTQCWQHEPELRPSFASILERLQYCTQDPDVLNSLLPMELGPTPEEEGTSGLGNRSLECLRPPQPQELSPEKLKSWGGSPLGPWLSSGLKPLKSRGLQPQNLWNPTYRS
Conditions: at 0.1 µM
Description: GSK_PKIS: LTK mean inhibition at 0.1 uM [Nanosyn]
Records here are stratified by inhibition; strata: LOW (below 2%), MID (2% to below 4%), HIGH (4% or more)

Solved cases below.
>  <given.smiles>
COc1cc2c(cc1Nc1nc(Nc3ccsc3C(N)=O)c3cc[nH]c3n1)N(C(=O)CN(C)C)CCC2(C)C

>  <assigned.class>
HIGH

$$$$
>  <given.smiles>
FC(F)(F)c1cccc(-c2nn3ncccc3c2-c2ccnc(Nc3ccc4c(c3)OCCO4)n2)c1

>  <assigned.class>
MID

$$$$
>  <given.smiles>
COc1ccc(CNC(=O)c2ccc(-c3cc(-c4nnc(C)o4)ccc3C)cc2)cc1

>  <assigned.class>
LOW

$$$$
>  <given.smiles>
CCn1c(-c2nonc2N)nc2cnc(Oc3cccc(NC(=O)c4ccc(N(C)C)cc4)c3)cc21

>  <assigned.class>
LOW

$$$$
>  <given.smiles>
Nc1ncc(-c2cccc(S(N)(=O)=O)c2)c2scc(-c3ccc(F)c(Cl)c3)c12

>  <assigned.class>
HIGH

$$$$

Field: class (inhibition) — entry: COc1ccc2[nH]c3c4[nH]c5ccc(OC)cc5c4c4c(c3c2c1)C(=O)NC4=O
HIGH

Field: class (inhibition) — entry: N#Cc1c(NC(=O)c2ccc(F)cc2)sc2c1CCCC2
LOW

Field: class (inhibition) — entry: COC(=O)Nc1nc2ccc(Oc3ccc(NC(=O)Nc4cccc(Cl)c4)cc3)cc2[nH]1
MID

Field: class (inhibition) — entry: CCn1c(-c2nonc2N)nc2c(C#CC(C)(C)O)ncc(OC3CCNCC3)c21
LOW

Field: class (inhibition) — entry: Clc1ccc(-c2nn3ncccc3c2-c2ccnc(Nc3ccccc3)n2)cc1
LOW

Field: class (inhibition) — entry: CS(=O)(=O)CCNCc1coc(-c2ccc3ncnc(Nc4ccc(OCc5ccccc5)cc4)c3c2)c1
HIGH

Field: class (inhibition) — entry: CCn1c(-c2nonc2N)nc2ccccc21
HIGH

Field: class (inhibition) — entry: Cc1ccc(O)cc1Nc1ccnc2cc(-c3ccccn3)ccc12
HIGH

---

Biological target: Serine/threonine-protein kinase 26 (Homo sapiens) (UniProt Q9P289);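 also: mean inhibition of MST4 kinase activity, reported from the GSK PKIS inhibitor-set screening panel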
Sequence (Q9P289 2-416 limits assumed): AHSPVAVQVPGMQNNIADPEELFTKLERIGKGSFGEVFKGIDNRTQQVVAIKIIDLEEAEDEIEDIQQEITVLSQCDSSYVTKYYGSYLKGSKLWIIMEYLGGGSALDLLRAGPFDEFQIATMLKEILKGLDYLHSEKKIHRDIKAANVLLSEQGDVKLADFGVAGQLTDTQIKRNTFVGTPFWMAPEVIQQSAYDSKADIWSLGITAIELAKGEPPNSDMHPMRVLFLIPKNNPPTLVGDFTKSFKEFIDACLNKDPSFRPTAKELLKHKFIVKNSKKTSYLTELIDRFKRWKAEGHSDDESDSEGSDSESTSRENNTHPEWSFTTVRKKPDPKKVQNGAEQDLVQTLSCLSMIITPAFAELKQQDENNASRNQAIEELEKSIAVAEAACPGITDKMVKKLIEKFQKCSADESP
Settings: at 1 µM
endpoint: inhibition

Some entries whose results are on file:
>  <given.smiles>
CCc1nn2ncccc2c1-c1ccnc(NC2CC2)n1

>  <inhibition>
1.56%

$$$$
>  <given.smiles>
CC(C)(CO)CNC(=O)c1ccc2c(c1)/C(=N/Nc1ccc(S(N)(=O)=O)cc1)C(=O)N2

>  <inhibition>
7.27%

$$$$

For reference, reported inhibition for COc1ccc2c(-c3ccnc(Nc4cccc(OC(F)(F)F)c4)n3)cnn2n1 stands at -3.1%

For reference, reported inhibition for N#Cc1c(NC(=O)c2ccc(F)cc2)sc2c1CCCC2 stands at 2.43%

For reference, reported inhibition for Cc1ccc(O)cc1Nc1ccnc2cc(-c3ccccn3)ccc12 stands at -0.53%

For reference, reported inhibition for Fc1cccc(COc2ccc(Nc3ncnc4sc(-c5ccco5)cc34)cc2Cl)c1 stands at 3.25%

---

Biological target: Tyrosine-protein kinase ZAP-70 (Homo sapiens);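 also: values are mean percent inhibition of ZAP-70 kinase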
Sequence (whole entry): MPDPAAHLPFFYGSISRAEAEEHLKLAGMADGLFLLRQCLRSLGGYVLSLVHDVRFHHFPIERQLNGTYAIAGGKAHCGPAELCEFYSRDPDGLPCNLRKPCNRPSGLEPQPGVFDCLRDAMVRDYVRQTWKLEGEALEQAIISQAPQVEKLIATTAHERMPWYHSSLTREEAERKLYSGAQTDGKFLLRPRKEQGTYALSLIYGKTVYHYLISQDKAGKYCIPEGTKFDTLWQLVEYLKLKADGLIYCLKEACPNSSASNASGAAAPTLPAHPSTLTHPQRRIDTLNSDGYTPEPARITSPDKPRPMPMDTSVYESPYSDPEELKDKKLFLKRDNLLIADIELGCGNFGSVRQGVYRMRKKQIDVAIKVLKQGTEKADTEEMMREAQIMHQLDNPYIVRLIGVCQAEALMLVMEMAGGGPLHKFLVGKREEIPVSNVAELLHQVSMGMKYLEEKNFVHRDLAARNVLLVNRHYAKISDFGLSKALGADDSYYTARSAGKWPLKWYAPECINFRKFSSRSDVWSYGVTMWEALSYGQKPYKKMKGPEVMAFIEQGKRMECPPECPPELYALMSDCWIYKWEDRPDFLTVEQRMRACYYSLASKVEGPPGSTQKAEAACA
Details: at 0.1 µM
endpoint: inhibition (%)
Output spec: scalar in %, unitless text.

Some entries whose results are on file:
>  <given.smiles>
O=C(O[C@H]1CN[C@H](C#Cc2cc3ncnc(Nc4ccc(Cc5ccccc5)cc4)c3s2)C1)N1CCOCC1

>  <unit.abbreviation>
%

>  <inhibition>
-0.2

$$$$
>  <given.smiles>
O=S(=O)(CCNCc1ccc(-c2ccc3ncnc(Nc4ccc(OCc5cccc(F)c5)c(Cl)c4)c3c2)o1)c1ccccc1

>  <unit.abbreviation>
%

>  <inhibition>
2.6

$$$$
>  <given.smiles>
COc1cc2ncn(-c3cc(OCc4ccccc4C(F)(F)F)c(C(=O)N(C)C)s3)c2cc1OC

>  <unit.abbreviation>
%

>  <inhibition>
1.79

$$$$

// molecule CS(=O)(=O)CCNCc1ccc(-c2ccc3ncnc(Nc4ccc(OCc5ccccc5)c(C(F)(F)F)c4)c3c2)o1 , assay Tyrosine-protein kinase ZAP-70 (Homo sapiens), inhibition value: 0.47

// molecule CNC(=O)c1cncc(/C=C/c2ccccc2Cl)c1 , assay Tyrosine-protein kinase ZAP-70 (Homo sapiens), inhibition value: 1.79

// molecule CCN1CCC(CC(=O)Nc2n[nH]c3nnc(-c4cccc(F)c4F)cc23)CC1 , assay Tyrosine-protein kinase ZAP-70 (Homo sapiens), inhibition value: -0.89

// molecule CCn1c(-c2nonc2N)nc2ccccc21 , assay Tyrosine-protein kinase ZAP-70 (Homo sapiens), inhibition value: 1

// molecule COc1cc(/C=N/Nc2ncnc3[nH]ncc23)ccc1O , assay Tyrosine-protein kinase ZAP-70 (Homo sapiens), inhibition value: 0.75

// molecule c1cc(-c2cnn3nc(N4CCOCC4)ccc23)nc(NC2CC2)n1 , assay Tyrosine-protein kinase ZAP-70 (Homo sapiens), inhibition value: -5.37

// molecule CC(C)(CO)CNC(=O)c1ccc2c(c1)/C(=N/Nc1ccc(S(N)(=O)=O)cc1)C(=O)N2 , assay Tyrosine-protein kinase ZAP-70 (Homo sapiens), inhibition value: -3.15

// molecule COc1ccc(-c2cc3c(N)ncnc3o2)cc1 , assay Tyrosine-protein kinase ZAP-70 (Homo sapiens), inhibition value: -2.99

// molecule [O-][S+]1CCN(Cc2ccc(-c3ccc4ncnc(Nc5ccc(OCc6cccc(F)c6)c(Cl)c5)c4c3)o2)CC1 , assay Tyrosine-protein kinase ZAP-70 (Homo sapiens), inhibition value: 0.38

// molecule COC(=O)Nc1nc2ccc(S(=O)(=O)c3ccc(NC(=O)Nc4cc(C(F)(F)F)ccc4F)cc3)cc2[nH]1 , assay Tyrosine-protein kinase ZAP-70 (Homo sapiens), inhibition value: 2.44

// molecule CCn1c(-c2nonc2N)nc2c(C#CC(C)(C)O)nc(OC[C@H](N)c3ccccc3)cc21 , assay Tyrosine-protein kinase ZAP-70 (Homo sapiens), inhibition value: 0.59

// molecule CCc1nn2ncccc2c1-c1ccnc(NC2CC2)n1 , assay Tyrosine-protein kinase ZAP-70 (Homo sapiens), inhibition value: 1.02

// molecule CCn1cc(-c2ccnc3[nH]ccc23)c(-c2cccc(NC(=O)Nc3ccc(OCc4ccccc4)cc3)c2)n1 , assay Tyrosine-protein kinase ZAP-70 (Homo sapiens), inhibition value: -0.61

// molecule COc1cc(N2CCN(C(C)C)CC2)ccc1Nc1nc(Nc2ccc(F)cc2C(N)=O)c2cc[nH]c2n1 , assay Tyrosine-protein kinase ZAP-70 (Homo sapiens), inhibition value: 6.3

// molecule CC(=O)Nc1cccc(C#Cc2cncnc2Nc2ccc(OCc3cccc(F)c3)c(Cl)c2)c1 , assay Tyrosine-protein kinase ZAP-70 (Homo sapiens), inhibition value: 3.59

// molecule COc1ccc(-c2oc3ncnc(N)c3c2-c2ccc(NC(=O)Nc3cc(C(F)(F)F)ccc3F)cc2)cc1 , assay Tyrosine-protein kinase ZAP-70 (Homo sapiens), inhibition value: 0.23
